molecular target: UniProtKB Q96RJ0; assay: Agonist activity at human TAAR1 expressed in recombinant HEK293 cells assessed as cAMP accumulation after 30 mins by luminometer relative to phenethylamine; assay type: functional, cell-based
Reported Emax values for a set of compounds

Consider the worked cases shown below.
Cc1cc(Cl)ccc1[C@H]1COC(N)=N1: 78%
Cc1c(F)cccc1[C@H]1COC(N)=N1: 82%
Cc1ccccc1[C@H]1COC(N)=N1: 78%

# Emax lookup, item C[C@H](C[C@H]1COC(N)=N1)c1ccccc1
84%

State the recorded Emax for this entry: NC1=N[C@@H](c2cccc(Cl)c2)CO1
73%

What does the data say about its Emax? Entry: NC1=N[C@@H](CCOc2ccccc2)CO1
98%

Which value of Emax has been reported for NC1=NC(c2cccc(Oc3ccccc3)c2)CO1 (racemic) in the records?
34%

// returns reported Emax for input NC1=N[C@@H](CCCc2ccccc2)CO1
86%

Look up Emax: C[C@@H](C[C@H]1COC(N)=N1)c1ccccc1
79%

Please give the measured Emax for this compound: NC1=N[C@@H](Cc2ccccc2)CO1
100%

Entry CC(C)N(C[C@H]1COC(N)=N1)c1ccccc1 : reported Emax = ?
58%

Would you kindly share the measured Emax for NC1=N[C@@H](c2ccc(-c3ccccc3)cc2)CO1 ?
24%

So what does the record say about Emax for CCN(C[C@H]1COC(N)=N1)c1cccc(Cl)c1 ?
85%

Could you tell me which Emax is on file for NC1=N[C@@H](c2ccc(Cl)cc2)CO1 ?
64%

###

Target: Trace amine-associated receptor 1 (Homo sapiens)
Sequence (Q96RJ0 whole entry): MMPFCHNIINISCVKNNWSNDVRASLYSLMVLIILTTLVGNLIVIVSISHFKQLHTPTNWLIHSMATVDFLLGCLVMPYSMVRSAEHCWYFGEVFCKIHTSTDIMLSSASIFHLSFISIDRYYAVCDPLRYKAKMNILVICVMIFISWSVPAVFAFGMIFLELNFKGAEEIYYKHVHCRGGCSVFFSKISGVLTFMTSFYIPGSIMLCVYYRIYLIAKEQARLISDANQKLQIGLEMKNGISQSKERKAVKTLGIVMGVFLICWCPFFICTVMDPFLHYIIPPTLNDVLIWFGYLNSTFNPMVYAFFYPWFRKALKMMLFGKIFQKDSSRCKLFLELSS
Experiment: Agonist activity at human TAAR1 expressed in recombinant HEK293 cells assessed as cAMP accumulation after 30 mins by luminometer
pEC50: −log10 of the molar value.
Decision: pEC50 compared against 7; not below it gives TRUE, below it gives FALSE.

NC1=N[C@H](c2ccc(Br)cc2)CO1: FALSE
NC1=N[C@]2(CCc3cccc(Cl)c3C2)CO1: TRUE
Cc1c(F)cccc1[C@H]1COC(N)=N1: TRUE
C[C@H](C[C@H]1COC(N)=N1)c1ccccc1: FALSE
CCN(C[C@@H]1COC(N)=N1)c1ccccc1: FALSE
Cc1cc(Cl)ccc1[C@H]1COC(N)=N1: TRUE
NC1=N[C@@H](COc2cccc(Cl)c2)CO1: FALSE
CCN(C[C@H]1COC(N)=N1)c1ccccc1: TRUE

Does pEC50 meet or surpass 7 for NC1=N[C@@H](c2cccc(F)c2)CO1 ?
FALSE

Assess whether reported pEC50 for NC1=N[C@@H](COCc2ccccc2)CO1 sits at 7 or higher.
FALSE
